Each entry below carries its reported pKd.
- assayed_system: GDP-bound KRAS wild-type protein (Homo sapiens, UniProt P01116)
- Sequence (P01116 whole entry): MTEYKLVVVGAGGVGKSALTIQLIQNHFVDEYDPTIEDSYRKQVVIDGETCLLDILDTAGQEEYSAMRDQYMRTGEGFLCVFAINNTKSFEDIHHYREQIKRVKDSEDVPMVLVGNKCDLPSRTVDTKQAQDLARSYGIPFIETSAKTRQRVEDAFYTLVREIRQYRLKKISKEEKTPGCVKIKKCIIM
- experimental_details: Binding to KRAS by surface plasmon resonance (SPR), Single Cycle Kinetics
- measurement_conditions: SPR, Single Cycle Kinetics, 1:1 binding model; GDP-bound KRAS wild-type protein; read-out: KRAS KD
Quick note: pKd values are minus log10 of concentrations in mol/L.

Query string: Record request: pKd value, item CCO[C@@H]1C[C@H]2C(=O)NC3(CCCC3)C(=O)N(C)[C@@H](C(CC)CC)C(=O)N(C)[C@H](C(=O)N3CCCC3)CC(=O)N(C)[C@@H](C)C(=O)N[C@@H]([C@@H](C)CC)C(=O)N(C)CC(=O)N(C)[C@H]3C/C=C\CCN(C3=O)[C@@H](CC3CCCCC3)C(=O)N(C)CC(=O)N[C@@H](CCc3cc(F)c(C(F)(F)F)c(F)c3)C(=O)N2C1 [PP1435]
Result string: 8.96

Query string: Further, for CCO[C@@H]1C[C@H]2C(=O)NC3(CCC3)C(=O)N(C)[C@@H](C3CCCC3)C(=O)N(C)[C@H](C(=O)N(C)C)CC(=O)N(C)[C@@H](CC(C)C)C(=O)N[C@@H]([C@@H](C)CC)C(=O)N(C)CC(=O)N(C)[C@H]3C/C=C\CCN(C3=O)[C@@H](Cc3ccc(F)cc3)C(=O)N(C)CC(=O)N[C@@H](CCc3ccc4sccc4c3)C(=O)N2C1 [PP1427] ?
Result string: 9.00

Query string: Next compound up: CCCN(C)C(=O)[C@@H]1CC(=O)N(C)[C@@H](CC(C)C)C(=O)N[C@@H]([C@@H](C)CC)C(=O)N(C)CC(=O)N(C)[C@H]2C/C=C\CCN(C2=O)[C@@H](Cc2ccc(C(F)(F)F)cc2)C(=O)N(C)CC(=O)N[C@@H](CCc2cc(F)c(C(F)(F)F)c(F)c2)C(=O)N2C[C@H](OCC)C[C@H]2C(=O)NC2(CCC2)C(=O)N(C)[C@@H](C2CCCC2)C(=O)N1C [PP1387]
Result string: 10.01

Query string: Now try CCO[C@@H]1C[C@H]2C(=O)NC3(CC(F)(F)C3)C(=O)N(C)[C@@H](C3CCCC3)C(=O)N(C)C(C3CCCCC3)CC(=O)N(C)[C@@H](COC)C(=O)N[C@@H]([C@@H](C)CC)C(=O)N(C)CC(=O)N(C)[C@H]3C/C=C\CCN(C3=O)[C@@H](Cc3ccc(C(F)(F)F)cc3)C(=O)N(C)CC(=O)N[C@@H](CCc3cc(F)c(C(F)(F)F)c(F)c3)C(=O)N2C1 (stereo partly shown) [PP1586] .
Result string: 9.12

----------
Listed compounds paired with reported log10 of Kd
- assayed_system: GDP-bound KRAS wild-type protein (Homo sapiens, UniProt P01116)
- experimental_details: Binding to KRAS by surface plasmon resonance (SPR), Single Cycle Kinetics
- measurement_conditions: SPR, Single Cycle Kinetics, 1:1 binding model; GDP-bound KRAS wild-type protein; read-out: KRAS KD
Values below are the log10 of the recorded Kd, with pM as the unit.

Answered cases to consult:
>  <molecular_string>
CCO[C@@H]1C[C@H]2C(=O)NC3(CCC3)C(=O)N(C)[C@@H](C(CC)CC)C(=O)N(C)[C@H](C)CC(=O)N(C)[C@@H](CC3CCCC3)C(=O)N[C@@H]([C@@H](C)CC)C(=O)N(C)CC(=O)N(C)[C@H]3C/C=C\CCN(C3=O)[C@@H](Cc3ccc(F)cc3)C(=O)N(C)CC(=O)N[C@@H](CCc3cc(F)c(C(F)(F)F)c(F)c3)C(=O)N2C1

>  <assayed_system>
GDP-bound KRAS wild-type protein (Homo sapiens, UniProt P01116)

>  <measure>
log10 of Kd

>  <observed_measurement>
3.61

$$$$
>  <molecular_string>
CCO[C@@H]1C[C@H]2C(=O)NC3(CCC3)C(=O)N(C)[C@@H](C3CCCC3)C(=O)N(C)[C@H](C(=O)N(C)CCOC)CC(=O)N(C)[C@@H](CC)C(=O)N[C@@H]([C@@H](C)CC)C(=O)N(C)CC(=O)N(C)[C@H]3C/C=C\CCN(C3=O)[C@@H](Cc3ccc(C(F)(F)F)cc3)C(=O)N(C)CC(=O)N[C@@H](CCc3ccc4sccc4c3)C(=O)N2C1

>  <assayed_system>
GDP-bound KRAS wild-type protein (Homo sapiens, UniProt P01116)

>  <measure>
log10 of Kd

>  <observed_measurement>
2.77

$$$$
>  <molecular_string>
CCO[C@@H]1C[C@H]2C(=O)NC3(CCC3)C(=O)N(C)[C@@H](C3CCCC3)C(=O)N(C)[C@H](C(=O)N3CCOCC3)CC(=O)N(C)[C@@H](CC)C(=O)N[C@@H]([C@@H](C)CC)C(=O)N(C)CC(=O)N(C)[C@H]3C[C@@H](C)[C@@H](C)CN(C3=O)[C@@H](Cc3ccc(C(F)(F)F)cc3)C(=O)N(C)CC(=O)N[C@@H](CCc3ccc(C(F)(F)F)c(Cl)c3)C(=O)N2C1

>  <assayed_system>
GDP-bound KRAS wild-type protein (Homo sapiens, UniProt P01116)

>  <measure>
log10 of Kd

>  <observed_measurement>
1.74

$$$$
>  <molecular_string>
CCCOC[C@H]1C(=O)N[C@@H]([C@@H](C)CC)C(=O)N(C)CC(=O)N(C)[C@H]2C/C=C\CCN(C2=O)[C@@H](Cc2ccc(C(F)(F)F)cc2)C(=O)N(C)CC(=O)N[C@@H](CCc2cc(F)c(C(F)(F)F)c(F)c2)C(=O)N2C[C@H](OCC)C[C@H]2C(=O)NC2(CC(C)(C)C2)C(=O)N(C)[C@@H](C2CCCC2)C(=O)N(C)[C@H](C(=O)N(CC)CC)CC(=O)N1C

>  <assayed_system>
GDP-bound KRAS wild-type protein (Homo sapiens, UniProt P01116)

>  <measure>
log10 of Kd

>  <observed_measurement>
2.74

$$$$

Query string: For the compound shown here, `CCO[C@@H]1C[C@H]2C(=O)NC3(CCCC3)C(=O)N(C)[C@@H](C3CCCC3)C(=O)N(C)[C@H](C(=O)N3CCOCC3)CC(=O)N(C)[C@@H](CC)C(=O)N[C@@H]([C@@H](C)CC)C(=O)N(C)CC(=O)N(C)[C@H]3CC[C@@H](C)CN(C3=O)[C@@H](Cc3ccc(C(F)(F)F)cc3)C(=O)N(C)CC(=O)N[C@@H](CCc3cc(F)c(C(F)(F)F)c(F)c3)C(=O)N2C1` , give the reported log10 of Kd.
Result string: 1.89

Query string: Try this compound too: `CC[C@H](C)[C@@H]1NC(=O)[C@H](CC2CC2)N(C)C(=O)C[C@@H](C(=O)N2CCCC2)N(C)C(=O)[C@H](C2CCCC2)N(C)C(=O)C2(CCC2)NC(=O)[C@@H]2C[C@H](C)CN2C(=O)[C@H](CCc2cc(F)c(C(F)(F)F)c(F)c2)NC(=O)CN(C)C(=O)[C@H](Cc2ccc(C(F)(F)F)cc2)N2CC/C=C\C[C@@H](C2=O)N(C)C(=O)CN(C)C1=O`
Result string: 2.04
